test_system: B2 bradykinin receptor (Homo sapiens)
Sequence (P30411 whole entry): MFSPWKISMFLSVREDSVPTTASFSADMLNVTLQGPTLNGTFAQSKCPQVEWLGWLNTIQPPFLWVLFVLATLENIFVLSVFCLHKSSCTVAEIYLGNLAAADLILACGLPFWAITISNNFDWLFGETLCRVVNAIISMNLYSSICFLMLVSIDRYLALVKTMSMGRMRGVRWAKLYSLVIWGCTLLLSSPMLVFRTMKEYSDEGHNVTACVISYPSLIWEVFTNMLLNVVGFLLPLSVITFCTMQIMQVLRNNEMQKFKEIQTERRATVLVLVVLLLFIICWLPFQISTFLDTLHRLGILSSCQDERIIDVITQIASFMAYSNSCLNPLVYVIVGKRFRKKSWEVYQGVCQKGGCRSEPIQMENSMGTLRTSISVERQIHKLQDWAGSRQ
assay_protocol: Compound was assayed for binding against the human Bradykinin receptor B2 expressed in CHO cells
Assay type: cell-based
readout_name: Kd
// return the numeric value with its unit appended

N=C(N)NCC1N=C(c2ccccc2)c2cc(N(Cc3ccccc3)Cc3ccccc3)ccc2N(CCCN=C(N)N)C1=O (stereo not drawn)    12 µM
CCCCc1ccnc([C@H](CC2CCCCC2)NC(=O)CCCCN)c1    62 µM

Give the reported value of Kd for this record: NCCCC[C@H](C(=O)NCc1ccc(CN)cc1)n1cccc1C(=O)NC(Cc1ccccc1)c1ccccc1 (stereo partly drawn) 28 µM

The measurements presented in this section are drawn from ChEMBL document CHEMBL1132794.
